- EXPERIMENT DESCRIPTION: chemical genetic growth profiling, strain panel (AID 1159580);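 note: tested at 20 µM; growth read once vehicle control cultures reached saturation at 30 °C; 1 = growth at the plate median or of vehicle wells; lower values mean less growth of the strain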
- MEASUREMENT CONTEXT: S. cerevisiae deletion strains, growth OD, locus YDL101C, strain DUN1, stronger effect = lower value
Among all 5,500 compounds or so, about 2,000 (36%) were called active. About 18% were inconclusive and are not listed. Some of the results follow. Where a SMILES comes first, the peptide text is derived from it.
Checkbox rule: normalized growth lower than 1 = condition met; normalized growth not lower than 1 = condition not met.

COc1ccc2c(c1)OCC(Cc1ccc(OC)c(O)c1)C2=O (centres undefined) :: condition met
Clc1ccc(CSc2nccn2-c2cc(Cl)ccc2Cl)cc1 :: condition met
CC(=O)NC(CCC(=O)O)C(=O)O (centres undefined) :: condition met
N/C(=N/OC(=O)Nc1ccccc1)c1ccc(C2SCCS2)cc1 :: condition met
CC(=O)N[C@@H](CC(=O)O)C(=O)N[C@@H](CCC(=O)O)C(=O)O (Ac-Asp-Glu-OH) :: condition not met
Oc1c(Cl)cc(Cl)c(Cl)c1Cc1c(O)c(Cl)cc(Cl)c1Cl :: condition met
C1N2CN3CN1CN(C2)C3 :: condition met
O=C(Nc1cc(C(F)(F)F)cc(C(F)(F)F)c1)C(Cl)(Cl)Cl :: condition met
CCOC(=O)C(c1ccccc1)C(Nc1ccc(Cl)c(Cl)c1)c1ccccn1 (centres undefined) :: condition not met

---

- EXPERIMENT DESCRIPTION: chemical genetic growth profiling, strain panel (AID 1159580)
- MEASUREMENT CONTEXT: S. cerevisiae deletion strains, growth OD, locus YHR200W, strain rpn10, stronger effect = lower value
About 2,000 (36%) of roughly 5,500 compounds were called active. Roughly 18% stayed inconclusive and do not appear here. This is one part of the list.
normalized growth overview
EXPERIMENTAL ENDPOINT: normalized growth

COC(=O)[C@@H]1OC(=O)C2OC23[C@@]1(C)CCC1[C@@]2(C)CCC(=O)C(C)(C)C2C[C@@H](OC(C)=O)[C@]13C (stereo not given in full) :: 1.02
CN(C)CCC(c1ccccc1)c1ccccn1 (stereo not given) :: 0.998
Cc1cc(/C=C/c2ccc3cc(N(C)C)ccc3[n+]2C)c(C)n1-c1ccccc1 :: 0.857
CC(=O)OCC(=O)[C@@]1(O)CCC2C3CCC4=CC(=O)C=CC4(C)C3[C@@H](O)C[C@@]21C (stereo not given in full) :: 1.01
CC(C)c1nc(N(C)S(C)(=O)=O)nc(-c2ccc(F)cc2)c1/C=C/[C@@H](O)C[C@@H](O)CC(=O)O :: 1

---

- EXPERIMENT DESCRIPTION: chemical genetic growth profiling, strain panel (AID 1159580)
- MEASUREMENT CONTEXT: S. cerevisiae deletion strains, growth OD, locus YOR069W, strain VPS5, stronger effect = lower value
Out of some 5,500 compounds screened, about 2,000 (36%) were called active. About 18% were inconclusive and are not listed. Some of the results follow.
Each item that follows carries a reported normalized growth.
EXPERIMENTAL ENDPOINT: normalized growth

CC(=O)Oc1ccc2c(c1)CCC1C2CC[C@]2(C)C(=O)CCC12 (stereo not given in full) :: 1.01
COC1C=CC23c4cc5c(cc4CN(CC2O)[C@@H]3C1)OCO5 (stereo not given in full) :: 1.01
O=C1CCCCC/C=C/CCCCCCCCO1 :: 1
COc1ccc(CCC(=O)c2c(O)cc(O[C@@H]3O[C@H](CO)C(O)[C@H](O)C3O[C@@H]3O[C@@H](C)[C@H](O)[C@@H](O)[C@H]3O)cc2O)cc1O (stereo not given in full) :: 1
C[C@]12CCC3c4ccc(OC(=O)c5ccccc5)cc4CCC3C1CCC2=O (stereo not given in full) :: 0.993
CCCCCCCCCCCC(=O)OCC(COP(=O)(O)OCC(O)COP(=O)(O)OCC(COC(=O)CCCCCCCCCCC)OC(=O)CCCCCCCCCCC)OC(=O)CCCCCCCCCCC (stereo not given) :: 0.951
NC1(C(=O)O)CCC1 :: 1
NC1(C(=O)O)CCCC1 :: 1.01
Cc1nnc(NS(=O)(=O)c2ccc(N)cc2)s1 :: 1.01
CN(C)CCC(c1ccccc1)c1ccccn1 (stereo not given) :: 1.01

---

List of normalized growth values.
- EXPERIMENT DESCRIPTION: chemical genetic growth profiling, strain panel (AID 1159580);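 note: tested at 20 µM; growth read once vehicle control cultures reached saturation at 30 °C; 1 = growth at the plate median or of vehicle wells; lower values mean less growth of the strain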
- MEASUREMENT CONTEXT: S. cerevisiae deletion strains, growth OD, locus YDR150W, strain NUM1, stronger effect = lower value
About 2,000 (36%) of roughly 5,500 compounds were called active. About 18% were inconclusive and are not listed. The list shows a part of the results.
EXPERIMENTAL ENDPOINT: normalized growth

N[C@H](C(=O)O)[C@H](O)C(=O)O :: 1
Cc1cccc(C)c1NC(=O)C1CCCCN1C (configuration not stated) :: 1
O=S(=O)(NCc1ccc(F)cc1F)c1cccc(C(F)(F)F)c1 :: 0.911
CCOC(=O)c1ccc(Oc2ccc(Cl)cc2Cl)c([N+](=O)[O-])c1 :: 1.01
CC(C)(S)[C@@H](N)C(=O)O :: 1.01
CCOC(=O)c1ccc(Oc2sccc2[N+](=O)[O-])cc1 :: 0.866
Cc1ccccc1/C=C/C1=NCCN1 :: 1.02
O=C(O)C(O)C(O)C(=O)O (configuration not stated) :: 0.979
CC(C)N(CCC(=O)c1ccc2ccccc2c1)Cc1ccccc1 :: 0.058
Cc1ccc(C(=O)c2ccc(CC(=O)O)n2C)cc1 :: 1.01
CC(C)c1nc(N(C)S(C)(=O)=O)nc(-c2ccc(F)cc2)c1/C=C/[C@@H](O)C[C@@H](O)CC(=O)O :: 1.01
Cc1cc(CC(=O)O)n(C)c1C(=O)c1ccc(Cl)cc1 :: 0.998

---

- EXPERIMENT DESCRIPTION: chemical genetic growth profiling, strain panel (AID 1159580);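 note: tested at 20 µM; growth read once vehicle control cultures reached saturation at 30 °C; 1 = growth at the plate median or of vehicle wells; lower values mean less growth of the strain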
- MEASUREMENT CONTEXT: S. cerevisiae deletion strains, growth OD, locus YDR335W, strain msn5, stronger effect = lower value
The whole screen tested about 5,500 compounds, of which about 2,000 (36%) were called active. Another 18% or so got no clear call; they are omitted. The list shows a part of the results.
EXPERIMENTAL ENDPOINT: normalized growth

Nc1nc(F)nc2c1ncn2[C@@H]1O[C@H](COP(=O)(O)O)[C@@H](O)[C@@H]1O :: 0.997
CC(=O)C1CCC2C3CCC4C[C@H](O)CCC4(C)C3C[C@H](O)C12C (some centres undefined) :: 0.982
CC(=O)Oc1c2c(c3c(c1CC=C(C)C)O[C@]14C(=C[C@@H]5CC1C(C)(C)OC4(C/C=C(\C)C(=O)O)C5=O)C3=O)OC(C)(CCC=C(C)C)C=C2 (some centres undefined) :: 0.997
C1N2CN3CN1CN(C2)C3 :: 0.997
Cc1cc(/C=C/c2ccc3cc(N(C)C)ccc3[n+]2C)c(C)n1-c1ccccc1 :: 0.953
CC(=O)C1CC[C@H]2C3CC[C@H]4C[C@H](O)CC[C@]4(C)C3CC[C@]12C (some centres undefined) :: 0.984
C=C1C(=O)[C@]23[C@H](O)[C@H]1CC[C@H]2[C@@]12CO[C@]3(O)[C@H](O)[C@@H]1C(C)(C)CC[C@@H]2O :: 1
CC(=O)Oc1c2c(c(CC=C(C)C)c3c1C(=O)C1=C[C@@H]4CC5C(C)(C)OC(C/C=C(\C)C(=O)O)(C4=O)[C@@]15O3)OC(C)(CCC=C(C)C)C=C2 (some centres undefined) :: 0.994
C[C@]12C=CC(=O)C=C1CCC1C2[C@@H](O)C[C@@]2(C)C1CC[C@]2(O)C(=O)CO (some centres undefined) :: 0.996

---

Reported normalized growth values for the following compounds.
- EXPERIMENT DESCRIPTION: chemical genetic growth profiling, strain panel (AID 1159580);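 note: tested at 20 µM; growth read once vehicle control cultures reached saturation at 30 °C; 1 = growth at the plate median or of vehicle wells; lower values mean less growth of the strain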
- MEASUREMENT CONTEXT: S. cerevisiae deletion strains, growth OD, locus YOR184W, strain ser1, stronger effect = lower value
In all, about 5,500 compounds went through this assay and about 2,000 (36%) were called active. Not shown: some 18% with an inconclusive outcome. The list shows a part of the results.
EXPERIMENTAL ENDPOINT: normalized growth

Clc1ccc(COC(Cn2ccnc2)c2ccc(Cl)cc2Cl)c(Cl)c1 (stereo not given) :: 0.0771
COC1=CC(=O)OC(CCc2ccc(OC)c(OC)c2)C1 (stereo not given) :: 1.03
COc1cc2c(cc1OC)C1(O)C(=O)c3ccc(O)c(C(=O)O)c3OC1CO2 (stereo not given) :: 1.07
Cc1cccc(C)c1NC(=O)C1CCCCN1C (stereo not given) :: 1.02
CN(C)C(=O)Oc1ccc[n+](C)c1 :: 1.01
Cc1cc(/C=C/c2ccc3cc(N(C)C)ccc3[n+]2C)c(C)n1-c1ccccc1 :: 0.928
CCCCCCCCCCCCCC(=O)OC1C(C)C2(O)C(C=C(CO)CC3(O)C(=O)C(C)=CC32)C2C(C)(C)C12OC(C)=O (stereo not given) :: 0.979
CCN1C[C@@]2(COC)C3[C@@H](OC)[C@H]4[C@@H]1[C@]3(C(OC)C[C@H]2O)C1C[C@@]2(O)[C@H](OC(=O)c3ccccc3)C1[C@]4(OC(C)=O)[C@@H](O)[C@@H]2OC (stereo not given in full) :: 1.02
Clc1ccc(COC(Cn2ccnc2)c2ccc(Cl)cc2Cl)cc1 (stereo not given) :: 0.0649
COC(=O)/C(C)=C\CC12OC(C)(C)C3CC(C=C4C(=O)c5c(OC)c6c(c(CC=C(C)C)c5OC431)OC(C)(CCC=C(C)C)C=C6)C2=O (stereo not given) :: 0.978
C[C@]12CCC3C(CC[C@H]4C[C@H](O)CC[C@]34C)C1CC[C@@H]2O (stereo not given in full) :: 0.82
Clc1ccc(CSC(Cn2ccnc2)c2ccc(Cl)cc2Cl)cc1 (stereo not given) :: 0.0618
Oc1c(Cl)cc(Cl)c(Cl)c1Cc1c(O)c(Cl)cc(Cl)c1Cl :: 0.075
CC(C)/C(O)=C1/C(=O)O[C@@H](c2ccoc2)[C@]2(C)C(O)[C@@H](O)[C@@]34OC5(C)OC67CC(C)(C(O)[C@]6(O)[C@@H](O)[C@]3(O5)C12)[C@H](CC(=O)O)[C@]74C (stereo not given in full) :: 1
C1N2CN3CN1CN(C2)C3 :: 1.02
O=C(O)C1CCCNC1 (stereo not given) :: 1.04
C=C[C@@]1(C)CC(=O)[C@@]2(O)[C@](C)(O1)[C@@H](OC(C)=O)[C@@H](O)C1C(C)(C)CC[C@H](O)[C@@]12C (stereo not given in full) :: 0.978
C[C@]12CCC3C(CC[C@H]4C[C@@H](O)CC[C@]34C)C1CC[C@@H]2O (stereo not given in full) :: 0.836
CC(=O)C1CC[C@H]2C3CC[C@H]4C[C@H](O)CC[C@]4(C)C3CC[C@]12C (stereo not given in full) :: 0.981
COc1ccc2c(c1)OCC(Cc1ccc(OC)c(OC(C)=O)c1)C2=O (stereo not given) :: 0.969
